Test system: SPC-A-1 cells
Test: MTT antiproliferative assay, SPC-A-1
Type: cell-based
Conditions: SPCA1, lung cancer
measured_attribute: pIC50
One number for each entry, as −log10 of the molar value.

Would you please give the reported pIC50 of Cn1cc(CCCC(=O)Nc2ccc(C(=O)NO)cc2)c2ccccc21 [Compound I13] with SPC-A-1 cells?
6.09

----------
Target: HDAC7 (Homo sapiens, UniProt Q8WUI4)
Sequence (Q8WUI4 whole entry): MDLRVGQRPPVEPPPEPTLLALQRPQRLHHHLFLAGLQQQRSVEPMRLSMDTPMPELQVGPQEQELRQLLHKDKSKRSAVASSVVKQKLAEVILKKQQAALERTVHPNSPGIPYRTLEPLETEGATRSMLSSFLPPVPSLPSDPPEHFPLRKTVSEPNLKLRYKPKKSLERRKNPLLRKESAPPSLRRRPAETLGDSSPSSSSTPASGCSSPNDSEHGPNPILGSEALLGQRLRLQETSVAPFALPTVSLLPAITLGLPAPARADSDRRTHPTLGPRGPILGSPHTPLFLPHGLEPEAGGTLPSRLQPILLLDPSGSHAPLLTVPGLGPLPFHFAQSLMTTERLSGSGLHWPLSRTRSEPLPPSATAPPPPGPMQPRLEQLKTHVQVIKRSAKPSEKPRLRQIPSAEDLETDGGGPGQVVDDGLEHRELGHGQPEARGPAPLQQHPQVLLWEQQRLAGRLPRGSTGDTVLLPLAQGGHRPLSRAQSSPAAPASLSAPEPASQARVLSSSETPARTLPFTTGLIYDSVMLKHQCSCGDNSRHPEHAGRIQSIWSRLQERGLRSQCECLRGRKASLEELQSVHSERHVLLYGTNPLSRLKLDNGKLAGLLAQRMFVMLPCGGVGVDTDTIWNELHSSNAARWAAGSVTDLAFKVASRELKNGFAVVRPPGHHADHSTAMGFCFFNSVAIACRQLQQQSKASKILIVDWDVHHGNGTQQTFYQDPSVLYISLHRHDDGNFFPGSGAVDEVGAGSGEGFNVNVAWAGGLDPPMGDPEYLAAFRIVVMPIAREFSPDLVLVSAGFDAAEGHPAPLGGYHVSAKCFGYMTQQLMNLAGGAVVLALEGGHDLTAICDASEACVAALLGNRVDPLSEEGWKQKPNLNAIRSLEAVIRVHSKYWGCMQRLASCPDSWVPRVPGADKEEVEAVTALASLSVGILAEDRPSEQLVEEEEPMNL
Experiment: In vitro HDACs inhibitory assay, recombinant HDAC7
measured_attribute: pIC50
Answers are plain numbers, as −log10 of the molar value.

Please give measured pIC50 of the following entry: `Cn1cc(CCCC(=O)Nc2ccc(C(=O)NO)cc2)c2ccccc21`
6.49
